- Assayed system: Fuc(a1-2)Gal(b1-4)[Fuc(a1-3)]GlcNAc(b1-3)Gal(b1-4)[Fuc(a1-3)]GlcNAc(b1-3)Gal(b1-4)[Fuc(a1-3)]GlcNAc
- Assay explanation: glycan array binding signal (z-score within array); higher = stronger binding
- Condition label: glycan notation: IUPAC condensed, linker removed
This excerpt belongs to a sample that is enriched for the strongest signals.
Property: glycan array binding signal (z-score)

RsaA-N-term (Caulobacter crescentus), P35828 (protein) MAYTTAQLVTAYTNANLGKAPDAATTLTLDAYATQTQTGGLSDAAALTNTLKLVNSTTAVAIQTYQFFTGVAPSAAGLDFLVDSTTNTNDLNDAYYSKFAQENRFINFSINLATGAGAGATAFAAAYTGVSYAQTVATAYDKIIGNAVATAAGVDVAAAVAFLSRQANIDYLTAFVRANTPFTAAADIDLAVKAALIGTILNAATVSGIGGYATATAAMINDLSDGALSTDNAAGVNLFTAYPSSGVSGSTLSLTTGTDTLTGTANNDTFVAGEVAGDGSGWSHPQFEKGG: -1.26

Let's switch to this binder now.
binder AT1G73650(15) (Arabidopsis thaliana), F4HRY1 (protein) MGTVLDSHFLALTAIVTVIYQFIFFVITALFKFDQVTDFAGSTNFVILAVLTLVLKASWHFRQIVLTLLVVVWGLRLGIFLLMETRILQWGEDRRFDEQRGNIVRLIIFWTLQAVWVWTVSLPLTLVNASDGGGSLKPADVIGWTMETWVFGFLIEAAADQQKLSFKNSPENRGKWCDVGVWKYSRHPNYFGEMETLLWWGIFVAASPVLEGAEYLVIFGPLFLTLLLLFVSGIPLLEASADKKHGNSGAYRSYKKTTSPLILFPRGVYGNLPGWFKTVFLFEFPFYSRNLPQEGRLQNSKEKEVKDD , glycan array binding signal (z-score) observed: -0.048

Attribution: the supplement of paper PMC8728848
